# Test system: HepG2
# assay-remarks: Cell proliferation assay (CCK8), HepG2
# Assay type: cell-based
# assay-context: Homo sapiens, HepG2; cells incubated with compounds for 24 h; CCK8
Assign IC50 to each entry below.
State just the number; it will be interpreted in µM.

Request: Kindly state the measured IC50 obtained for O=C(O)/C=C/c1ccc2c(c1)OCCCCO2 [C] with HepG2.
Result: 56

Request: Kindly state the measured IC50 obtained for COc1cc(NC(=O)/C=C/c2ccc3c(c2)OCCCCO3)cc(OC)c1OC [Compound D6] with HepG2.
Result: 13.2

Request: Kindly state the measured IC50 obtained for O=C(/C=C/c1ccc2c(c1)OCCCCO2)Nc1cccc(Cl)c1 [Compound D10] with HepG2.
Result: 6.87

Request: Kindly state the measured IC50 obtained for Cc1ccc(Cl)cc1NC(=O)/C=C/c1ccc2c(c1)OCCCCO2 [Compound D13] with HepG2.
Result: 15.2

Request: Kindly state the measured IC50 obtained for O=C(/C=C/c1ccc2c(c1)OCCCCO2)Nc1ccc([N+](=O)[O-])cc1 [Compound D1] with HepG2.
Result: 3.47

Request: Kindly state the measured IC50 obtained for O=C(O)/C=C/c1ccc(O)c(O)c1 [Caffeic acid] with HepG2.
Result: 225

Request: Kindly state the measured IC50 obtained for C#Cc1cccc(Nc2ncnc3cc(OCCOC)c(OCCOC)cc23)c1 [Erlotinib, reference compound] with HepG2.
Result: 0.08

Request: Kindly state the measured IC50 obtained for O=C(/C=C/c1ccc2c(c1)OCCCCO2)Nc1ccc(Br)cc1 [Compound D16] with HepG2.
Result: 2.38

Request: Kindly state the measured IC50 obtained for CCOc1ccc(NC(=O)/C=C/c2ccc3c(c2)OCCCCO3)cc1 [Compound D9] with HepG2.
Result: 0.79

Request: Kindly state the measured IC50 obtained for COc1ccc(OC)c(NC(=O)/C=C/c2ccc3c(c2)OCCCCO3)c1 [Compound D5] with HepG2.
Result: 10.5

====

# System: HepG2
# assay-remarks: Cell proliferation assay (CCK8), HepG2
# Format: cell-based
# assay-context: Homo sapiens, HepG2; cells incubated with compounds for 24 h; CCK8
Assign log10 IC50 to each entry below.
In plain terms, each number is the log10 of measured IC50 in µM.

Request: What log10 IC50 value was documented for this compound, Cc1cccc(NC(=O)/C=C/c2ccc3c(c2)OCCCCO3)c1 [Compound D12] ?
Result: 0.80

Request: What log10 IC50 value was documented for this compound, COc1cccc(NC(=O)/C=C/c2ccc3c(c2)OCCCCO3)c1 [Compound D7] ?
Result: 0.50

Request: What log10 IC50 value was documented for this compound, O=C(/C=C/c1ccc2c(c1)OCCCCO2)Nc1ccc(Br)cc1F [Compound D14] ?
Result: 0.96

Request: What log10 IC50 value was documented for this compound, COc1ccc(NC(=O)/C=C/c2ccc3c(c2)OCCCCO3)cc1OC [Compound D3] ?
Result: 1.01

Request: What log10 IC50 value was documented for this compound, COc1ccc(NC(=O)/C=C/c2ccc3c(c2)OCCCCO3)cc1 [Compound D8] ?
Result: -0.02

====

metric-name: melting point

Request: What melting point value was documented for this molecule, O=C(/C=C/c1ccc2c(c1)OCCCCO2)Nc1ccccc1Cl [Compound D11] ?
Result: 127 to 128 °C

Request: What melting point value was documented for this molecule, O=C(/C=C/c1ccc2c(c1)OCCCCO2)Nc1cccc(F)c1 [Compound D17] ?
Result: 116 to 117 °C

Request: What melting point value was documented for this molecule, COc1cc(NC(=O)/C=C/c2ccc3c(c2)OCCCCO3)cc(OC)c1 [Compound D4] ?
Result: 115 to 116 °C

Request: What melting point value was documented for this molecule, Cc1cccc(NC(=O)/C=C/c2ccc3c(c2)OCCCCO3)c1 [Compound D12] ?
Result: 112 to 113 °C

Request: What melting point value was documented for this molecule, O=C(/C=C/c1ccc2c(c1)OCCCCO2)NCc1ccccc1F [Compound D15] ?
Result: 86 to 87 °C

====

# System: A431
# assay-remarks: Cell proliferation assay (CCK8), A431
# Type: cell-based
# assay-context: Homo sapiens, A-431, cells incubated with compounds for 24 h
metric-name: IC50 (µM)
State just the number; it will be interpreted in µM.

Request: What IC50 value was documented for this compound, O=C(/C=C/c1ccc2c(c1)OCCCCO2)Nc1cccc(F)c1 ?
Result: 21.6

Request: What IC50 value was documented for this compound, COc1cccc(NC(=O)/C=C/c2ccc3c(c2)OCCCCO3)c1 ?
Result: 12.6

Request: What IC50 value was documented for this compound, O=C(/C=C/c1ccc2c(c1)OCCCCO2)Nc1cccc(Cl)c1 ?
Result: 20

Request: What IC50 value was documented for this compound, COc1ccc(NC(=O)/C=C/c2ccc3c(c2)OCCCCO3)cc1OC ?
Result: 8.96

Request: What IC50 value was documented for this compound, Cc1cccc(NC(=O)/C=C/c2ccc3c(c2)OCCCCO3)c1 ?
Result: 14.2

Request: What IC50 value was documented for this compound, COc1ccc(OC)c(NC(=O)/C=C/c2ccc3c(c2)OCCCCO3)c1 ?
Result: 9.31

Request: What IC50 value was documented for this compound, CCOc1ccc(NC(=O)/C=C/c2ccc3c(c2)OCCCCO3)cc1 ?
Result: 7.03

Request: What IC50 value was documented for this compound, O=C(O)/C=C/c1ccc(O)c(O)c1 ?
Result: 93.5

Request: What IC50 value was documented for this compound, Cc1ccc(Cl)cc1NC(=O)/C=C/c1ccc2c(c1)OCCCCO2 ?
Result: 14.1

Request: What IC50 value was documented for this compound, COc1cc(NC(=O)/C=C/c2ccc3c(c2)OCCCCO3)cc(OC)c1OC ?
Result: 11.7

Request: What IC50 value was documented for this compound, COc1ccc(NC(=O)/C=C/c2ccc3c(c2)OCCCCO3)cc1 ?
Result: 7.42

====

# System: Hela
# assay-remarks: Cell proliferation assay (CCK8), Hela
# Format: cell-based
# assay-context: Homo sapiens, cells incubated with compounds for 24 h
# Experimental: CCK8 is much more convenient and helpful than MTT for analyzing cell proliferation, because it can be reduced to soluble formazan by dehydrogenase in mitochondria and has little toxicity to cells. Cell proliferation was determined using CCK8 dye (Beyotime Inst. Biotech., Nanjing, China) according to the manufacturer's instructions. […] Percent inhibition or IC50 values of compounds were calculated by comparison with DMSO-treated control wells.
metric-name: IC50 (µM)
State just the number; it will be interpreted in µM.

Request: What IC50 value was documented for this compound, O=C(/C=C/c1ccc2c(c1)OCCCCO2)Nc1cccc(Cl)c1 ?
Result: 18.5

Request: What IC50 value was documented for this compound, COc1cc(NC(=O)/C=C/c2ccc3c(c2)OCCCCO3)cc(OC)c1 ?
Result: 23.7

Request: What IC50 value was documented for this compound, COc1cc(NC(=O)/C=C/c2ccc3c(c2)OCCCCO3)cc(OC)c1OC ?
Result: 25.7

Request: What IC50 value was documented for this compound, O=C(/C=C/c1ccc2c(c1)OCCCCO2)Nc1ccc(Br)cc1 ?
Result: 9.04

Request: What IC50 value was documented for this compound, Cc1ccc(Cl)cc1NC(=O)/C=C/c1ccc2c(c1)OCCCCO2 ?
Result: 24.3

Request: What IC50 value was documented for this compound, Cc1cccc(NC(=O)/C=C/c2ccc3c(c2)OCCCCO3)c1 ?
Result: 10.8

Request: What IC50 value was documented for this compound, O=C(/C=C/c1ccc2c(c1)OCCCCO2)NCc1ccccc1F ?
Result: 5.15

Request: What IC50 value was documented for this compound, COc1ccc(NC(=O)/C=C/c2ccc3c(c2)OCCCCO3)cc1OC ?
Result: 19.6

Request: What IC50 value was documented for this compound, O=C(O)/C=C/c1ccc2c(c1)OCCCCO2 ?
Result: 105

Request: What IC50 value was documented for this compound, COc1ccc(OC)c(NC(=O)/C=C/c2ccc3c(c2)OCCCCO3)c1 ?
Result: 21.4

Request: What IC50 value was documented for this compound, O=C(/C=C/c1ccc2c(c1)OCCCCO2)Nc1ccccc1[N+](=O)[O-] [Compound D2] ?
Result: 28.2

Request: What IC50 value was documented for this compound, O=C(/C=C/c1ccc2c(c1)OCCCCO2)Nc1cccc(F)c1 ?
Result: 19.5

Request: What IC50 value was documented for this compound, COc1ccc(NC(=O)/C=C/c2ccc3c(c2)OCCCCO3)cc1 ?
Result: 7.04

Request: What IC50 value was documented for this compound, O=C(/C=C/c1ccc2c(c1)OCCCCO2)Nc1ccccc1Cl ?
Result: 16.7

Request: What IC50 value was documented for this compound, O=C(O)/C=C/c1ccc(O)c(O)c1 ?
Result: 544

Request: What IC50 value was documented for this compound, O=C(/C=C/c1ccc2c(c1)OCCCCO2)Nc1ccc([N+](=O)[O-])cc1 [Compound D1] ?
Result: 13.6

Request: What IC50 value was documented for this compound, O=C(/C=C/c1ccc2c(c1)OCCCCO2)Nc1ccc(Br)cc1F ?
Result: 30.8

Request: What IC50 value was documented for this compound, CCOc1ccc(NC(=O)/C=C/c2ccc3c(c2)OCCCCO3)cc1 ?
Result: 6.75

Request: What IC50 value was documented for this compound, COc1cccc(NC(=O)/C=C/c2ccc3c(c2)OCCCCO3)c1 ?
Result: 8.71
